B1: CPEB3 Ribozyme (parent)
chain: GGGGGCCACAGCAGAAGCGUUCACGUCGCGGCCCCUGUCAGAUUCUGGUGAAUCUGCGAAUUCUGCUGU

Variants of: B1
Assay: self-cleavage, relative activity (ratio to wild type); higher = more cleavage; co-transcriptional
Readout Type: self-cleavage
In your answer, state the number alone without any accompanying words.

## Task Can you look up the measured self-cleavage of GGGGGCCACAGCAGAAGCGUUCACGUCGCGGCCCCUGUCAGAUUCUGGUGACUCUGCGAAUUCUGCUUU for me?
## Result 0.979

## Task Try GGGGGCCACAGCAGAAGCGGUCUCGUCGCGGCCCCUGUCAGAUUCUGGUGAAUCUGCGAAUUCUGCUGU next.
## Result 0.243

## Task Same thing, different variant: GGGGGCCACAGCAGAAGCGUUCACGUCGCGGCCCCUUUCAGAUUCUGGUGAAUCUGCGAAUACUGCUGU
## Result 0.227

## Task What do we get for CGGGGCCACAGCAGAAGCGUUCACGUCGCGGCCCCUGCCAGAUUCUGGUGAAUCUGCGAAUUCUGCUGU ?
## Result 0.231

## Task Now the variant GGAGGCCACAGCAGAAGCGUUCACGUCGCGGCCCCUGUCAGAUUCUGGUGAAUCUGCGAAUUCUGCUGU
## Result 0.693

## Task GGGGGCCACAGCAGAAGCGUUCACGUCGCGGCCCCAGUCAGAUUCUGGUGAAUCUGCGAAUUCUGCUAU ?
## Result 0.317

## Task Another variant to look at: GGGGGCCACAGCAGAUGCGUUCUCGUCGCGGCCCCUGUCAGAUUCUGGUGAAUCUGCGAAUUCUGCUGU
## Result 0.867

## Task Can you check GGGGGCCACAGCAGAAGCGUUCACGUCGCGGCCCCUGUCAGAUUCGGGUGCAUCUGCGAAUUCUGCUGU next?
## Result 0.949

## Task What do we get for GGGGGCCACAGCAGAAGCGUUCACGUCGCGGCCCCUGUCAGAUUCUGGUGAAUCUGCGAUGUCUGCUGU ?
## Result 0.556

## Task Ok, now CGGGGCCACAGCAGAAGCGUUCACGUCGCGGCCCCUGUCAGAUUAUGGUGAAUCUGCGAAUUCUGCUGU
## Result 0.252

## Task Subsequent entry: GGGGGCCACAGCAGAAGCGUUCACGUCGCGGCCCCUCUCAGAUUCUGGUGAAUUUGCGAAUUCUGCUGU
## Result 0.25

## Task What do we get for GGGGGCCACAGCAGGAGCGUUCACGCCGCGGCCCCUGUCAGAUUCUGGUGAAUCUGCGAAUUCUGCUGU ?
## Result 1.03

## Task Note, next up: GGAGGCCACAGCAGAAGCGUUCACGUCGCGGCCCCUGUCAGAUUCUGGGGAAUCUGCGAAUUCUGCUGU
## Result 0.392

## Task Also GGGGGCCACAGCAGAAGCGGUCGCGUCGCGGCCCCUGUCAGAUUCUGGUGAAUCUGCGAAUUCUGCUGU ?
## Result 0.32

## Task GGGGGCCGCAGCAGAAGCGUUCACGUCGCGGCCCCUGUCAGAUUCCGGUGAAUCUGCGAAUUCUGCUGU ?
## Result 0.83

## Task Entry to check: GGGGGCGACAGCAGAAGCGUCCACGUCGCGGCCCCUGUCAGAUUCUGGUGAAUCUGCGAAUUCUGCUGU
## Result 0.173

## Task Try the variant GGGGGCCACAGCAGAAGCGUUCACGUCGCGUCCCCUGUCAGAUUCUGGUGAAUCUGCGAAAUCUGCUGU
## Result 0.289

## Task And GGGGGCCACAGCAGAAGCAUUCACGUCGCGGCCCCUGUCAGAUUCUGGUCAAUCUGCGAAUUCUGCUGU ?
## Result 0.204

## Task Also need GGGGGCCACAGCAGAAGCGUUCACGUCGCGGCCCCUGUCAGAUUCUAGUGAAUCUGCGAAUACUGCUGU , thanks.
## Result 0.976

## Task Another variant to look at: GGGGGCCACAGCAGAAGCGUUCCCGUCGCGGCCCCUAUCAGAUUCUGGUGAAUCUGCGAAUUCUGCUGU
## Result 0.3

## Task Try this variant too: GGGGGCCACAGCAGAAGCGUCCACGUCGCGGCCCCUGUCAUAUUCUGGUGAAUCUGCGAAUUCUGCUGU
## Result 0.73

## Task Again, but for GGGGGGCACAGCAAAAGCGUUCACGUCGCGGCCCCUGUCAGAUUCUGGUGAAUCUGCGAAUUCUGCUGU
## Result 0.0825

## Task Then this variant: GGGGGCCACAGCAGAAGCGUUCACGUCGCGGCCCCUGUCAGAUUCUGGUGACUCUGCGAUUUCUGCUGU
## Result 0.476

## Task Now try GGGGGCCACAGCAGAAGCGUUCACGUCGCGGCCCCUGUCAGAUUCGAGUGAAUCUGCGAAUUCUGCUGU .
## Result 1.02

## Task Next: GGGGGCCACAGCAGAAGCGUUCACGUCGCGGCCCCUGUCAGAUUCUGGUCAAUCUGCGAAUUCUGCCGU
## Result 0.994

## Task Now try GGGGGCCACAGCAGAAGCGUUCACGUCGCGGCCCCUGUCCGAUUCUGGUGAAUCUGCGAAAUCUGCUGU .
## Result 0.304

## Task Again, but for GGGGGCCACAGCACAAGCGUUAACGUCGCGGCCCCUGUCAGAUUCUGGUGAAUCUGCGAAUUCUGCUGU
## Result 0.142

## Task Likewise for GGGGGCCACAGCAGAAGCUUUCACGUCGCGGCCCCUAUCAGAUUCUGGUGAAUCUGCGAAUUCUGCUGU ?
## Result 0.19

## Task Proceed to GGGGGCCACAGCAGAAGCGUUUACGUCGCGGCCCCUGUCAGAUUCUGGUGAAUCUGCGAAUUCUUCUGU
## Result 0.195

## Task Ok, now GGGGGCCACAGCAGAAGCUUUCACGUCGCGGCCCCUGUCCGAUUCUGGUGAAUCUGCGAAUUCUGCUGU
## Result 0.189

## Task Same read-out for GGGGGCCACAGCAGAGGCGUUCACGUCGCGGCCCCUGUCAGAUUUUGGUGAAUCUGCGAAUUCUGCUGU ?
## Result 0.884

## Task Also check GGGGGCCACAGCAGAACCGUUCACGUCCCGGCCCCUGUCAGAUUCUGGUGAAUCUGCGAAUUCUGCUGU
## Result 0.129

## Task And the next one, GGGGGCCACAGCAGAAGCGUCCACGUCGCGGCCCCUGUCAGAUUCUGGUGAAUCUGCGAAUUCUGCUGC ?
## Result 1.05

## Task Lookup GGGGGCCACAGCAGAAGCGUUCACGUCGCGGCCCCUGCCAGAUUCUGGUGAAUCUGCGAACUCUGCUGU
## Result 0.57

## Task Moving on to UGGGGCCACAGCAGAAGCGUUCACGUCGCGGCCCAUGUCAGAUUCUGGUGAAUCUGCGAAUUCUGCUGU
## Result 0.0801

## Task Next: GGGGGCCACAGCAGAAGCGUCCACGUCGCGGCCCCUGUCAGGUUCUGGUGAAUCUGCGAAUUCUGCUGU
## Result 0.749

## Task Another variant to look at: GGGGGCCACAGCAGAAGCGGUCACGUCGCGGCCCCUGUCAGAUUCUGGUGAAUAUGCGAAUUCUGCUGU
## Result 0.203

## Task Try GGGGGCCACAGCAGAAGCGUUCACGUCGCGGCCCCUGUCUGAUUCUGGUGAAUCUGCGAAUUCUGCCGU next.
## Result 0.845

## Task And GGCGGCCACAGCAGAAGCGUUCACGUCGCGGCCCCUGUCAGAUUUUGGUGAAUCUGCGAAUUCUGCUGU ?
## Result 0.121

## Task Also check GAGGGCCACAGCAGAAGCGUUCACGUCGCGGCCCCUUUCAGAUUCUGGUGAAUCUGCGAAUUCUGCUGU
## Result 0.0408

## Task Quick one: GGGGGCCACAGCAGAAGCGUUCACUUCGCGGCCCCUGUCGGAUUCUGGUGAAUCUGCGAAUUCUGCUGU
## Result 0.114

## Task What about this variant? GGGGGCGACAGCAGAAGCGUUCACGUCGCGGCCCCUGUCAGAUUCUGGUGAAUCUGUGAAUUCUGCUGU
## Result 0.158

## Task Further, for GGGGGGCACAGCAGAAGCGUUCACGUCGCGGCCCCUGUCAGAUACUGGUGAAUCUGCGAAUUCUGCUGU ?
## Result 0.224

## Task Same thing, different variant: GGGGGCCACAGCAGAAGCGUUCACGUCGCGUCCCCUGUUAGAUUCUGGUGAAUCUGCGAAUUCUGCUGU
## Result 0.357

## Task Do the same for GGGCGCCACAGCAGAAGCGGUCACGUCGCGGCCCCUGUCAGAUUCUGGUGAAUCUGCGAAUUCUGCUGU please
## Result 0.072

## Task Same lookup for GGGGGCCACAGCAGAAGCGUUCACCUCGCGGCCCCUGUCAGAUUCUGUUGAAUCUGCGAAUUCUGCUGU , please.
## Result 0.186
